conditions: buffer; pH 7.4; 200.0 µM
MEASURED_METRIC: solubility kinetic

Nc1nnc(SCc2ccccc2F)s1
> 36.2 µg/mL
Cc1cccc(C(=O)OCC(=O)NC2CC2)c1O
> 37.4 µg/mL
S=C(NC1CC1)NC1CCCc2ccccc21 (centres undefined)
> 37 µg/mL

Moving on to another molecule below.
q: State the recorded solubility kinetic for this entry: CC1CCCN(C(=O)COC(=O)c2cc(Br)ccc2O)C1 (centres undefined)
a: 40.1 µg/mL

====

settings: buffer; pH 7.4; 200.0 µM
MEASURED_METRIC: solubility kinetic

C[C@H](NC(=O)c1ccc2c(c1)OCO2)c1nnc2ccccn12
> 46.5 µg/mL
Cc1ccc(C(=O)N/C(=C\c2ccco2)C(=O)N2CC(C)OC(C)C2)cc1C (stereo not drawn)
> 57.4 µg/mL

Moving on to another compound below.
q: State the recorded solubility kinetic for this entry: CCn1cc(S(=O)(=O)Nc2cc(C(=O)OC)ccc2C)cn1
a: > 48.5 µg/mL

====

Reported solubility kinetic is given for each of the following compounds.
settings: buffer; pH 7.4; 200.0 µM

The cases that follow already have their solubility kinetic on record.
Cc1ccc(N2CC(c3nc4ccccc4n3C)CC2=O)cc1 (stereo unspecified)
> 45.8 µg/mL
C=CCC1(/C=N/O)CCOC(C)(C)C1 (stereo unspecified)
> 29.6 µg/mL
CCC[C@@H]1C[C@@H](C(=O)N[C@@H]([C@H]2O[C@H](SC)[C@H](O)[C@@H](O)[C@@H]2O)[C@@H](C)O)N(C)C1.Cl
> 66.5 µg/mL
Cn1nccc1NC(=O)Nc1ccc(OC(F)(F)F)cc1
> 45 µg/mL
O=C(O)c1ccccc1N1C(=O)c2cccc3cccc(c23)C1=O
> 47.6 µg/mL

Moving on to another compound below.
q: State the recorded solubility kinetic for this entry: COc1ccc(C(C)NC(=O)C2CCCC2)cc1 (stereo unspecified)
a: > 37.1 µg/mL

====

conditions: buffer; pH 7.4; 200.0 µM
Reported solubility kinetic is given for each of the following compounds.

q: State the recorded solubility kinetic for this entry: Cc1cc([N+](=O)[O-])ccc1NC(=O)C(C)NC1CCCCC1 (stereo not given)
a: > 45.8 µg/mL

q: State the recorded solubility kinetic for this entry: CC(=O)c1c(OCC(=O)N(C)C2CCCCC2)ccc2c(C)cc(=O)oc12
a: > 55.7 µg/mL

q: State the recorded solubility kinetic for this entry: COC(=O)c1c(N)sc(C(=O)NCCc2ccccc2)c1C
a: > 47.8 µg/mL

q: State the recorded solubility kinetic for this entry: CCOc1ccccc1NC(=O)Nc1cccc(NC(C)=O)c1
a: > 47 µg/mL

q: State the recorded solubility kinetic for this entry: COC(=O)c1ccc(NC(=O)CCCN2C(=O)NC(C)(C)C2=O)cc1
a: > 52.1 µg/mL

====

Reported solubility kinetic is given for each of the following molecules.
conditions: buffer; pH 7.4; 200.0 µM
Provide only the numeric value, understood in mg/mL.

The cases that follow already have their solubility kinetic on record.
COC(=O)CC(c1ccc(F)cc1)n1c(C)ccc1C (stereo unspecified)
0.0157
O=C(CCCc1ccccc1)NCc1ccc(Cl)cc1
0.0277
Br.C=CCN1CCc2cccc3c2[C@H]1Cc1ccc(O)c(O)c1-3
0.0279
C[Si](C)(C)n1ccnc1
0.0146
COc1ccc2oc(=O)c(C(=O)Nc3ccccc3O)cc2c1
0.001
COc1ccc(Cl)cc1C(=O)Nc1cccnc1
0.0221

q: State the recorded solubility kinetic for this entry: O=C(Cc1ccccc1)NC(=S)Nc1ccc(OC(F)F)cc1
a: 0.0112

q: State the recorded solubility kinetic for this entry: Cc1ccc(NC(=O)CCOc2ccccc2C)cc1C
a: 0.0017

q: State the recorded solubility kinetic for this entry: COc1ccc(S(=O)(=O)NCCCc2ccccc2)cc1
a: 0.0408

q: State the recorded solubility kinetic for this entry: COc1cccc(C2CCCN2Cc2nc(-c3cnccn3)no2)c1 (stereo unspecified)
a: 0.0449

q: State the recorded solubility kinetic for this entry: O=C(NCc1cccs1)c1cc(-c2ccc(O)cc2)on1
a: 0.0017

q: State the recorded solubility kinetic for this entry: COc1ccc(CCC(=O)Nc2ccc(Cn3ccnc3)cc2)cc1
a: 0.0442

q: State the recorded solubility kinetic for this entry: CC(=O)Nc1ccccc1OCC(=O)NCC(F)(F)F
a: 0.0432

====

settings: buffer; pH 7.4; 200.0 µM
Reported solubility kinetic is given for each of the following compounds.

q: State the recorded solubility kinetic for this entry: CCOC(=O)c1ccc(S(=O)(=O)NCCNCc2ccccc2)cc1.Cl
a: > 59.8 µg/mL

q: State the recorded solubility kinetic for this entry: COc1ccc(NC(=O)COC(=O)CNC(=O)C2CCCCC2)cc1OC
a: > 56.8 µg/mL

q: State the recorded solubility kinetic for this entry: Cn1c(N)c(C(=O)COC(=O)CNC(=O)c2ccccc2F)c(=O)n(C)c1=O
a: > 58.9 µg/mL

q: State the recorded solubility kinetic for this entry: O=C(O)C1CCN(c2ccc([N+](=O)[O-])cc2[N+](=O)[O-])CC1
a: > 44.3 µg/mL

q: State the recorded solubility kinetic for this entry: COC(=O)c1nc(-c2ccccc2)oc1N1CCOCC1
a: > 43.2 µg/mL

====

conditions: buffer; pH 7.4; 200.0 µM
Reported log10 solubility kinetic is given for each of the following compounds.
Reminder: these figures are log10 of reported solubility kinetic, in µg/mL before transformation.

CC1CCCC(C)N1C(=O)COC(=O)c1ccc(S(=O)(=O)N(C)c2ccccc2)cc1 (stereo not drawn)
0.84
CC(C)N(Cc1ccccc1)C(=O)COc1ccccc1
1.56
CCCC/C(=N/O)c1c(C)[nH]c2ccccc12
1.49
CCOC(=O)c1c(C)[nH]c(C(=O)COC(=O)C2CC2)c1C
0.89

q: State the recorded log10 solubility kinetic for this entry: CCOC(=O)c1ccc(NC(=S)N2CCCC2)cc1
a: 1.60

q: State the recorded log10 solubility kinetic for this entry: N#CC1=C(N)N2C(=C(C#N)C13CCCC3)Nc1ccccc12
a: 1.57

q: State the recorded log10 solubility kinetic for this entry: Brc1ccc(COc2cccc3cccnc23)cc1
a: 0.36

q: State the recorded log10 solubility kinetic for this entry: O=C(CSc1nc2ccccc2s1)c1ccc(O)cc1O
a: 0.52

q: State the recorded log10 solubility kinetic for this entry: O=C(Nc1ccc(OC(F)F)cc1)c1ccccn1
a: 1.50

q: State the recorded log10 solubility kinetic for this entry: Cc1nc2c(ccc3nc(NC(=O)C4CC4)sc32)s1
a: 0.45

q: State the recorded log10 solubility kinetic for this entry: Cc1cccc(N2CCN(C(=O)c3cccc(S(=O)(=O)N4CCCCC4)c3)CC2)c1C
a: 0.46

q: State the recorded log10 solubility kinetic for this entry: Cc1cc(C)c2c(N)c(C(=O)N3CCc4ccccc4C3)sc2n1
a: 0.74

q: State the recorded log10 solubility kinetic for this entry: Cc1onc(NC(=O)NC(=O)c2c(F)cccc2Cl)c1Br
a: 0.91

q: State the recorded log10 solubility kinetic for this entry: Cc1cc(C)c(C)c(OCCCCN2CCCCC2)c1
a: 1.47

====

conditions: buffer; pH 7.4; 200.0 µM
Binary classification by solubility kinetic, with 20 µg/mL as an inclusive lower bound for Met; all other cases are Not met.

Before answering, review these 5 worked examples.
CC(C)(CC(=O)O)CC(=O)N1CCN(c2nc3cc(Cl)ccc3s2)CC1
Met
Cc1nn(C)c(Cl)c1CN1CCN(C2CCCC2)C(CCO)C1 (configuration not stated)
Met
CC(C)(C)OC(=O)N1CCN(CCNC(=O)c2ccccc2)CC1
Met
CC(C)(C)Nc1nc(-c2ccccn2)nc2ccccc12
Met
CC(=O)c1ccccc1OC(=O)c1ccc([N+](=O)[O-])o1
Met

q: Exam item: decide whether the reported solubility kinetic for COc1ccc(NC(=S)Nc2ccccn2)cc1 is at least 20 µg/mL.
a: Not met

====

details: buffer; pH 7.4; 200.0 µM
MEASURED_METRIC: solubility kinetic

The cases that follow already have their solubility kinetic on record.
CC(=O)Nc1ccccc1NC(=O)c1ccccc1-c1ccccc1
> 49.6 µg/mL
O=S(=O)(NCCc1ccncc1)c1ccc(F)cc1
> 42 µg/mL
Cn1cc(C(=O)C(=O)N2CCOCC2)c2ccccc21
> 40.8 µg/mL
Cn1c(=O)n(C)c2cc(NC(=O)COc3ccccc3)ccc21
> 46.7 µg/mL
Cc1ccc(OCC(=O)N2CCc3ccccc3C2)c([N+](=O)[O-])n1
> 49.1 µg/mL
Cc1ccc2c(c1)C(c1ccccc1)=NCC(=O)N2C
> 39.6 µg/mL

Moving on to another molecule below.
q: State the recorded solubility kinetic for this entry: CC(C)N1CCN(Cc2ccc3nsnc3c2)CC1CCO (configuration not stated)
a: > 48.1 µg/mL

====

conditions: buffer; pH 7.4; 200.0 µM
MEASURED_METRIC: solubility kinetic

The cases that follow already have their solubility kinetic on record.
NS(=O)(=O)c1cccc(NC(=O)COC(=O)CCC2CCCC2)c1
> 53.2 µg/mL
N#Cc1c(Nc2ccccc2)s[nH]c1=O
> 32.6 µg/mL

Moving on to another molecule below.
q: State the recorded solubility kinetic for this entry: CC(C)NCC(O)COCCOc1ccc(Cl)cc1.Cl (stereo unspecified)
a: > 48.6 µg/mL
